# testDetails: viability loss with induced miR-34 in A549 – imaging, A549 dox-inducible miR-34, nuclei and caspase counts, primary screen (AID 1347080); note: test concentration not given here
# conditionSet: A549 miR-34 inducible, Hoechst nuclei count, 48 h; measured here: total cells with miR-34 induction; stronger effect = lower value
*1 amine or outer side, *2 acyl side, *3 side chain or, on linkers, in order; H or OH if unused. Where a SMILES comes first, the peptide text is derived from it. Bridges are numbered along the chain shown (N, C = ends). [ ]: non-standard residue; d: D form. The star is where a group is joined. ξ: configuration not given here. pTerphenylCO(4''-OnC5H11) = CCCCCOc1ccc(-c2ccc(-c3ccc(C(=O)*)cc3)cc2)cc1; ξOrn(4,5-diOH) = O=C(C(CC(O)C(O)N[*:3])N[*:1])[*:2]; ξhTyr(βξ-OH,γξ-OH) = NC(C(=O)O)C(O)C(O)c1ccc(O)cc1; ξPro(3ξ-OH,4ξ-Me) = CC1CNC(C(=O)O)C1O; Hyp = O=C(O)[CH]1C[CH](O)CN1
quantityName: cell count
Give the value as a plain number.

Asked: Output cell count of CCCCCOc1ccc(-c2ccc(-c3ccc(C(=O)NC4CC(O)C(O)NC(=O)C5C(O)C(C)CN5C(=O)C(C(C)O)NC(=O)C(C(O)C(O)c5ccc(O)cc5)NC(=O)C5CC(O)CN5C(=O)C(C(C)O)NC4=O)cc3)cc2)cc1 (stereo not drawn) ({pTerphenylCO(4''-OnC5H11)}-[ξOrn(4,5-diOH)]T[Hyp][ξhTyr(βξ-OH,γξ-OH)]T[ξPro(3ξ-OH,4ξ-Me)]; lactam 1-C; configuration not given here)
Given back: 5590

Asked: Output cell count of c1ccc(-c2ncc(-c3ccn[nH]3)s2)cc1
Given back: 8010

Asked: Output cell count of COc1ccc(NS(=O)(=O)c2sc3ccc(Cl)cc3c2C)cc1N1CCNCC1
Given back: 7390

Asked: Output cell count of OCC1OC(O[C@]2(CCl)OC(CCl)C(O)C2O)C(O)C(O)C1Cl (stereo not given in full)
Given back: 8040

Asked: Output cell count of NC(Cc1cccc(-c2ccccc2CP(=O)(O)O)c1)C(=O)O (stereo not given)
Given back: 10900
